Target: LRRK2 (Homo sapiens)
Construct: purchased Thermo Fisher Scientific
Sequence (Q5S007 970-2527 limits assumed): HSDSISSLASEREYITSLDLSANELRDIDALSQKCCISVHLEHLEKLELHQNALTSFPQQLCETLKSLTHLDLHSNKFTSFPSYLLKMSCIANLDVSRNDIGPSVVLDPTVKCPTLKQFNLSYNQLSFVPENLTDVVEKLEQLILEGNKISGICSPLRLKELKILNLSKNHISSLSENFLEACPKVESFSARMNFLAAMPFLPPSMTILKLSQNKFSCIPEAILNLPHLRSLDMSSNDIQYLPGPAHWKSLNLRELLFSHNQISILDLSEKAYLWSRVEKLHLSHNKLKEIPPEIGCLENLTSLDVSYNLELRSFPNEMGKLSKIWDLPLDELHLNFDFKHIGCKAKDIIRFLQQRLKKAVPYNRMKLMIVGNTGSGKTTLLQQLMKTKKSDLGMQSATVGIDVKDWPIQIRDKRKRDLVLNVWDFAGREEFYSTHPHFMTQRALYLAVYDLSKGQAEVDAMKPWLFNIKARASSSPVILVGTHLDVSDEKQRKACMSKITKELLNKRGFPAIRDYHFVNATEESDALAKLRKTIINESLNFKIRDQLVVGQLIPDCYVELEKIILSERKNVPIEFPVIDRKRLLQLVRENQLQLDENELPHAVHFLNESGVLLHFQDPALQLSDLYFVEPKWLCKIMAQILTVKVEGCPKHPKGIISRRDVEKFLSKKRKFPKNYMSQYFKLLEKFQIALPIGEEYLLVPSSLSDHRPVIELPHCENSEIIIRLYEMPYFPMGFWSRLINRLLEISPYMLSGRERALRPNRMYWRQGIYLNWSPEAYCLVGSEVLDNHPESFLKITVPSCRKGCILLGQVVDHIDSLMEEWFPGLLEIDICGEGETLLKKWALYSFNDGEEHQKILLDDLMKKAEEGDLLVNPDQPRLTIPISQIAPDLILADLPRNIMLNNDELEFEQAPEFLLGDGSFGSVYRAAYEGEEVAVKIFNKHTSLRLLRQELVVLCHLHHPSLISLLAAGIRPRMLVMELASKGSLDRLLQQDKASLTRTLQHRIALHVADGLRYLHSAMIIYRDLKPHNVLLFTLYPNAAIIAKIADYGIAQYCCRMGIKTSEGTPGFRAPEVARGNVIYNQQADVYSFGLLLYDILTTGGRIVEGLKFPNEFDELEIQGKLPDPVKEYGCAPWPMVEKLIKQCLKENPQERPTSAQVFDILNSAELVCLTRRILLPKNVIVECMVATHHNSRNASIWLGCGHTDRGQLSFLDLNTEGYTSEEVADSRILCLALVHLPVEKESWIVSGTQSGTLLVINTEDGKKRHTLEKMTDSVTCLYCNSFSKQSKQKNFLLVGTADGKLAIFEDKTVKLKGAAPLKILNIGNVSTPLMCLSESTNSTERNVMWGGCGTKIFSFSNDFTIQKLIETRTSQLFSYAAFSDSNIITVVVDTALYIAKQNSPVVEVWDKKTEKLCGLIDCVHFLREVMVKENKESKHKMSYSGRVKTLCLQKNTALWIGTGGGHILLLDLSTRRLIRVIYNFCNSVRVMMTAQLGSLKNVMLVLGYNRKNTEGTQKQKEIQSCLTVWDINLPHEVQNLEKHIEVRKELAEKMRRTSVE
Experiment: Kinase panel study
Assay type: biochemical
Settings: LRRK2; compound at 10µM; read-out: % of Inhibition
REPORTED PROPERTY: inhibition at 10 µM (%)

[[record]]
molecule = "COc1ccc2c(c1)c1ccnc3c4nc(OC)ccc4c(=O)n2c13 [MW01-E6]"
observed_value = 64


(I) O=c1c2cc(O)ccc2c2nccc3c4cc(O)ccc4n1c32 [MW01-E10]
(II) COc1ccc2c(c1)c1ccnc3c4ccnc(OC)c4c(=O)n2c13 [MW01-E14]
(III) COc1ccc2nc3c(cc2c1)c(N)nn3C(=O)c1cccc(N(C)C)c1 [MW05-E2]
Query: Kindly order the items shown according to inhibition at 10 µM, from the highest value down. Provide your answer as the labels ordered per the instruction.
Response: I, III, II
(I: 86%, III: 8%, II: -4%)

----------
Biological target: MINK1 (Homo sapiens)
Construct: purchased Thermo Fisher Scientific
Sequence (Q8N4C8 whole entry): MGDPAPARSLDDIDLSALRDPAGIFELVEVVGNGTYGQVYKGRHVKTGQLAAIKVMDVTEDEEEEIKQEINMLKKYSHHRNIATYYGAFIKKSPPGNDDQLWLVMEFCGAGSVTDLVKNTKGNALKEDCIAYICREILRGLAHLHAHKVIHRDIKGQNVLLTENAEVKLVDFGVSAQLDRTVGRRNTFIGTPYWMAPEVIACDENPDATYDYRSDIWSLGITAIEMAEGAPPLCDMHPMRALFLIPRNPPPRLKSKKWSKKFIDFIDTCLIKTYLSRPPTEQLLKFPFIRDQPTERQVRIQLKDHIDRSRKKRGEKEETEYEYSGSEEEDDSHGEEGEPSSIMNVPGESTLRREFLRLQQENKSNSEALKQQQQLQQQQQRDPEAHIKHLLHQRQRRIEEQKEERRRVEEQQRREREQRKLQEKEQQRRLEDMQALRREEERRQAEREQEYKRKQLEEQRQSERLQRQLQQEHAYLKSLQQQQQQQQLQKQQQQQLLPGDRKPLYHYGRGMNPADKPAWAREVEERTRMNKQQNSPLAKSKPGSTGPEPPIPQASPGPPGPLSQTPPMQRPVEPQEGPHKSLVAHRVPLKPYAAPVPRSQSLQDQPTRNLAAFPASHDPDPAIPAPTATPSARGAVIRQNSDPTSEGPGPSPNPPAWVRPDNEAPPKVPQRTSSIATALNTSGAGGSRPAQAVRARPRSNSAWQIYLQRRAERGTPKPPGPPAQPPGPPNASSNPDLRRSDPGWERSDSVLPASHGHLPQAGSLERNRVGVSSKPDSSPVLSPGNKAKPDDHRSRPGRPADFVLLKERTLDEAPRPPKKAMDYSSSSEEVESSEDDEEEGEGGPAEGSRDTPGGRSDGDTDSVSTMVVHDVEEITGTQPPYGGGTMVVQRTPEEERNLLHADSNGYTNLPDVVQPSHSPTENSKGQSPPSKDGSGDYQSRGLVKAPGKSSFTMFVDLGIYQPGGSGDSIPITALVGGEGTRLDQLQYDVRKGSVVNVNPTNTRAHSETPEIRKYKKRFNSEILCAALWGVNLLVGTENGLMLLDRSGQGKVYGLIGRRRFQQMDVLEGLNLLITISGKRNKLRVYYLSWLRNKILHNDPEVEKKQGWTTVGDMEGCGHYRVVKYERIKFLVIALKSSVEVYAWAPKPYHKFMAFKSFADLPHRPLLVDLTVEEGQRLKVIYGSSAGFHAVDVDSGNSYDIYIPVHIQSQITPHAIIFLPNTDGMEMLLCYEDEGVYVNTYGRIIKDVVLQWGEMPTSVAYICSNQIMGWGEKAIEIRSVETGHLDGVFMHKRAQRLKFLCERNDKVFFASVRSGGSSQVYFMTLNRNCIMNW
Assay: Kinase panel study
Format: biochemical
Details: MINK1; compound at 10µM; read-out: % of Inhibition
REPORTED PROPERTY: inhibition at 10 µM (%)

(I) O=c1c2cc(O)ccc2c2nccc3c4cc(O)ccc4n1c32 [MW01-E10]
(II) COc1ccc2nc3c(cc2c1)c(N)nn3C(=O)c1cccc(N(C)C)c1 [MW05-E2]
(III) COc1ccc2c(c1)c1ccnc3c4nc(OC)ccc4c(=O)n2c13 [MW01-E6]
(IV) COc1ccc2c(c1)c1ccnc3c4ccnc(OC)c4c(=O)n2c13 [MW01-E14]
Query: Sort ascending by inhibition at 10 µM: all records listed above. Provide your answer as the labels ordered per the instruction.
Response: IV, II, III, I

----------
Target: DNA-PK (Homo sapiens)
REPORTED PROPERTY: IC50

Query: Which IC50 is reported for this compound? COc1ccc2cc3c(N)nn(C(=O)c4cccc(N(C)C)c4)c3nc2c1
Response: ≥ 2000 nM

----------
Target: PIK3CD/PIK3R1 (p11 0 delta/p85 alpha) (Homo sapiens, UniProt O00329)
Construct: purchased Thermo Fisher Scientific
Sequence (O00329 whole entry): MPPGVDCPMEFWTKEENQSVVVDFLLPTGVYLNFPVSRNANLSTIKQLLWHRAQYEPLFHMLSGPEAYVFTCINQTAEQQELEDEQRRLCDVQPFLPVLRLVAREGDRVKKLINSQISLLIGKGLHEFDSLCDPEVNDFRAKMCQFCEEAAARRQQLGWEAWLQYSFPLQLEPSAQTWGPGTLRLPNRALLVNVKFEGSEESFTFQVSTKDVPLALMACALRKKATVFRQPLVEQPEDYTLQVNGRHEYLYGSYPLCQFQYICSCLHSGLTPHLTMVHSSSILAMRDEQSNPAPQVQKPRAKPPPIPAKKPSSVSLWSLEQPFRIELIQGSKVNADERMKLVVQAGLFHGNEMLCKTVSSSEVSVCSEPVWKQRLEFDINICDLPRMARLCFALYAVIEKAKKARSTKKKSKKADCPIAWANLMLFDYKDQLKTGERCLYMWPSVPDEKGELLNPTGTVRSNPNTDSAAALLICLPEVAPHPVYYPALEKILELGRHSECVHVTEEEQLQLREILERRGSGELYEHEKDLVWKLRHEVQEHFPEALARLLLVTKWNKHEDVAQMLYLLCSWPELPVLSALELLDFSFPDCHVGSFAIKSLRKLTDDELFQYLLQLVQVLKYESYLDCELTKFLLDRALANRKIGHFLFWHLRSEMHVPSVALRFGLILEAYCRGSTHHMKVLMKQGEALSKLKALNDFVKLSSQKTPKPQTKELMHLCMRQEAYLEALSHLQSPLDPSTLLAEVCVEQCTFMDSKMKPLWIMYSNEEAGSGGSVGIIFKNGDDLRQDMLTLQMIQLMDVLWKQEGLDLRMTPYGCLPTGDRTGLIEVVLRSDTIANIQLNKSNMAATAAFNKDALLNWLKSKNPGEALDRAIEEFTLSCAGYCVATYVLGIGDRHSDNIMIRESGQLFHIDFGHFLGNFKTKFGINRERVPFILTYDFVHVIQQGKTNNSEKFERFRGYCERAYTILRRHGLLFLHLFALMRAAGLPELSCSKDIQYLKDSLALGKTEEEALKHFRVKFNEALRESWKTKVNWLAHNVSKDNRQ
Sequence (P27986 whole entry partner): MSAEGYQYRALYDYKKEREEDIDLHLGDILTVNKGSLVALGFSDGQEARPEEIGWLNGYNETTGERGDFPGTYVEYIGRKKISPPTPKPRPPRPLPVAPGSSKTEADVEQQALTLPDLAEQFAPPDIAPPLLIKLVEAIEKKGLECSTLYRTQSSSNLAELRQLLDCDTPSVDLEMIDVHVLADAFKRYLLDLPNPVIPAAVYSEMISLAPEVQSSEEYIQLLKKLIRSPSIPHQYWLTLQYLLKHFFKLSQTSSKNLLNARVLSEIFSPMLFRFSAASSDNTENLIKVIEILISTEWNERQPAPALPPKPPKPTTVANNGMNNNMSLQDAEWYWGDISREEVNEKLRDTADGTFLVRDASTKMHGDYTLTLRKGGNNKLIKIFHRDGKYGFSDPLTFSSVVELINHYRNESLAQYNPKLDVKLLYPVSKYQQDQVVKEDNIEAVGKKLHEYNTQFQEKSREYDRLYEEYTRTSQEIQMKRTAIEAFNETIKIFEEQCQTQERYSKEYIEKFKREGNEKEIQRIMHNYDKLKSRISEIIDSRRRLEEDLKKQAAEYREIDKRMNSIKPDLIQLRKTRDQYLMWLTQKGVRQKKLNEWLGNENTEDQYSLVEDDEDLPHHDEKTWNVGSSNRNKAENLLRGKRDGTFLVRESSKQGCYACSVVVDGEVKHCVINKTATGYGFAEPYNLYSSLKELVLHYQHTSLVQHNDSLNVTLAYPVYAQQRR
Test: Kinase panel study
Type: biochemical
Settings: PIK3CD/PIK3R1; compound at 10µM; read-out: % of Inhibition
Method: The Kinase panel study was entirely provided by Thermo Fisher Scientific using the two lead compounds MW01 and MW05 as well as their derivatives (MW01-E06, MW01-E10, MW01-E14, MW01-E18, MW05-E2, MW05-E3, MW05-E9 and MW05-E10. The experiment was performed using the ZLyte or Adapta protocol according to manufacturer standard operating procedures. […]
REPORTED PROPERTY: inhibition at 10 µM (%)

(A) O=c1c2cc(O)ccc2c2nccc3c4cc(O)ccc4n1c32
(B) COc1ccc2c(c1)c1ccnc3c4nc(OC)ccc4c(=O)n2c13
Query: Field: lower recorded inhibition at 10 µM (choose A or B ) I would appreciate it if you answered with the label of your choice.
Response: B
(B: 34%, A: 87%)

(I) COc1ccc2c(c1)c1ccnc3c4ccnc(OC)c4c(=O)n2c13
(II) COc1ccc2nc3c(cc2c1)c(N)nn3C(=O)c1cccc(N(C)C)c1 [MW05-E2]
Query: Field: lower recorded inhibition at 10 µM (choose I or II ) I would appreciate it if you answered with the label of your choice.
Response: II

Data provenance: patent EP4467141A1
